testDescription: Plasma pharmacokinetics and brain distribution
Type: in vivo
assayContext: male, C57BL/6, mouse, plasma, iv, 2 mg/kg
Please provide measured Vd for the entries that follow.
One number for each entry, in L/kg.

Illustrative cases are given below, each with its answer.
[[record]]
compound = "COc1ccc(Br)c(CNc2cccnc2)c1 [ZINC128734226]"
experimentalresult = 1.11

[[record]]
compound = "CC(C)c1ccc(CNc2cccc(-c3nnc[nH]3)c2)cc1 [ZINC157673384]"
experimentalresult = 1.38


Now, please, on to the next compound.
Query :: Fill in the blank: the reported Vd of Clc1ccc(CNc2cccc(-c3nnc[nH]3)c2)c(Br)c1 [ZINC555417447] is ____.
Result :: 1.11

====

testedTarget: hMT2 (Homo sapiens, UniProt P49286)
Sequence (P49286 whole entry): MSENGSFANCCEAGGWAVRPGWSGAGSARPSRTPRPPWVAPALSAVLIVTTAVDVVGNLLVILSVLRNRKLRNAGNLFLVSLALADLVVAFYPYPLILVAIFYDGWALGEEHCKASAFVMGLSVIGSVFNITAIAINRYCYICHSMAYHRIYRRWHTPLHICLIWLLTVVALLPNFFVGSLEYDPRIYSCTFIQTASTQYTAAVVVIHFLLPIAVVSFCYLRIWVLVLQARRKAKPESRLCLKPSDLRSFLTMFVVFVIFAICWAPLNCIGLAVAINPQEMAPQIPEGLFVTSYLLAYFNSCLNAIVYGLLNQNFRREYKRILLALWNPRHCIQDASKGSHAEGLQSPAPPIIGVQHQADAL
testDescription: cell-based
Format: cell-based
assayContext: hMT2 pEC50 (inactive analog), tested at concentrations up to 30μM
pEC50: −log10 of the molar value.
testReadout: pEC50

Query :: Report pEC50 for Cc1nc(-c2cccc(NCc3ccccc3Cl)c2)n[nH]1 tested on hMT2 (Homo sapiens, UniProt P49286).
Result :: < 4.50

====

testedTarget: hMT1 (Homo sapiens)
testDescription: GloSensor cAMP assay
Type: cell-based
assayContext: hMT1 pEC50 (inactive analog), tested at concentrations up to 30μM
pEC50: −log10 of the molar value.
testReadout: pEC50

Query :: Fill in the blank: the reported pEC50 of Cc1nc(-c2cccc(NCc3ccccc3Cl)c2)n[nH]1 [ZINC37781618] is ____.
Result :: < 4.50

====

Please provide measured EC50 for the entries that follow.
testedTarget: hMT1 (Homo sapiens)
testDescription: GloSensor cAMP assay
Assay type: cell-based
assayContext: hMT1 pEC50, inhibition of isoproterenol-stimulated cAMP, HEK cells; agonist

Please go through the list and note EC50 for each compound.
1. Cc1cc(=O)n2ccn(CCc3ccc4c(c3)OC(F)(F)O4)c2n1
2. COC(=O)c1ccc(CSc2nnc(C3CC3)[nH]2)s1
3. COc1ccc(Br)c(CNc2cccnc2)c1
4. COc1ccc(CN(C(=O)[C@H]2C[C@@H]2C)c2ccncc2)cc1
5. CN(Cc1ccncc1)c1ccnc(Cl)c1

Result ::
1. > 10000 nM
2. 1 nM
3. 158 nM
4. 2000 nM
5. 398 nM

Query :: Fill in the blank: the reported EC50 of COc1ccc(CN(C(=O)c2scc(C)c2Cl)c2ccncc2)cc1 is ____.
Result :: > 10000 nM

====

testDescription: Plasma pharmacokinetics and brain distribution
Type: in vivo
assayContext: male, C57BL/6, mouse, brain and plasma, iv, 2 mg/kg
testReadout: Kp at 30 min

[[record]]
smilesstring = "COc1ccc(Br)c(CNc2cccnc2)c1"
testreadout = "Kp at 30 min"
experimentalresult = 1.58

[[record]]
smilesstring = "Clc1ccc(CNc2cccc(-c3nnc[nH]3)c2)c(Br)c1"
testreadout = "Kp at 30 min"
experimentalresult = 3.03


Now, please, on to the next molecule.
Query :: Fill in the blank: the reported Kp at 30 min of CC(C)c1ccc(CNc2cccc(-c3nnc[nH]3)c2)cc1 is ____.
Result :: 1.43

====

testedTarget: hMT1 (Homo sapiens, UniProt P48039)
Sequence (P48039 whole entry): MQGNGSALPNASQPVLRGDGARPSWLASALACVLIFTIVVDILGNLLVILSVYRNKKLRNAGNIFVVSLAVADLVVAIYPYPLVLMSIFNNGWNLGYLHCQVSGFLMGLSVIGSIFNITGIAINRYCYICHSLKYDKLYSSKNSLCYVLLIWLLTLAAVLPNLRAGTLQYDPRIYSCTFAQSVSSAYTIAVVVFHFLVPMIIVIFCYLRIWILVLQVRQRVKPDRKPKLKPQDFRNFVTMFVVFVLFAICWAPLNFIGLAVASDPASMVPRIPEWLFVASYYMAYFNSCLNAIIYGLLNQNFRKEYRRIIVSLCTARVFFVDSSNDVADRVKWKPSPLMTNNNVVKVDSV
testDescription: GloSensor cAMP assay
Type: cell-based
assayContext: pEC50 MT1 (IA), inverse agonist; as summarised in PK table
Please provide measured EC50 for the entries that follow.
Answers are plain numbers, in µM.

[[record]]
smilesstring = "CC(C)c1ccc(CNc2cccc(-c3nnc[nH]3)c2)cc1"
unitdescriptor = "µM"
experimentalresult = 0.02


Now, please, on to the next molecule.
Query :: Report EC50 for Clc1ccc(CNc2cccc(-c3nnc[nH]3)c2)c(Br)c1 tested on hMT1 (Homo sapiens, UniProt P48039).
Result :: 0.0398

The values you see were collected from paper PMC7134359.
